target: Nucleic Acid; test: Binding affinity to 2-AP labeled mutant RNA2 by fluorescence binding assay; assay type: nucleic-acid assay
test_readout: Kd (nM)
Quick note: give the figure in nM, leave out the unit.

Look up Kd for this molecule: CO[C@@H]1C[C@H](NC(=O)[C@@H]2C[C@H](O[C@H]3O[C@H](CN)[C@@H](O)[C@H](O)[C@H]3N)[C@@H](N)C[C@H]2N)[C@@H](N)C[C@H]1N
1500

###

molecular target: Nucleic Acid; experiment: Binding affinity to 2-AP labeled mutant RNA3 by fluorescence binding assay; assay type: nucleic-acid assay
test_readout: pKd
Quick note: pKd means taking -log10 of the concentration in moles per liter.

Look up pKd for this compound: NC[C@@H]1O[C@H](O[C@H]2[C@@H](O)[C@H](O[C@@H]3[C@@H](O)[C@H](N)C[C@H](N)[C@H]3O[C@H]3O[C@H](CN)[C@@H](O)[C@H](O)[C@H]3N)O[C@@H]2CO)[C@H](N)[C@@H](O)[C@@H]1O
5.96

And then CO[C@@H]1C[C@H](NC(=O)[C@@H]2C[C@H](O[C@H]3O[C@H](CN)[C@@H](O)[C@H](O)[C@H]3N)[C@@H](N)C[C@H]2N)[C@@H](N)C[C@H]1N , what is it?
5.66
